target: M3 muscarinic acetylcholine receptor (Homo sapiens); assay: PDSP radioligand binding, M3; settings: read-out: % inhibition at 10 µM; single concentration 10 µM
Sequence (P20309 whole entry): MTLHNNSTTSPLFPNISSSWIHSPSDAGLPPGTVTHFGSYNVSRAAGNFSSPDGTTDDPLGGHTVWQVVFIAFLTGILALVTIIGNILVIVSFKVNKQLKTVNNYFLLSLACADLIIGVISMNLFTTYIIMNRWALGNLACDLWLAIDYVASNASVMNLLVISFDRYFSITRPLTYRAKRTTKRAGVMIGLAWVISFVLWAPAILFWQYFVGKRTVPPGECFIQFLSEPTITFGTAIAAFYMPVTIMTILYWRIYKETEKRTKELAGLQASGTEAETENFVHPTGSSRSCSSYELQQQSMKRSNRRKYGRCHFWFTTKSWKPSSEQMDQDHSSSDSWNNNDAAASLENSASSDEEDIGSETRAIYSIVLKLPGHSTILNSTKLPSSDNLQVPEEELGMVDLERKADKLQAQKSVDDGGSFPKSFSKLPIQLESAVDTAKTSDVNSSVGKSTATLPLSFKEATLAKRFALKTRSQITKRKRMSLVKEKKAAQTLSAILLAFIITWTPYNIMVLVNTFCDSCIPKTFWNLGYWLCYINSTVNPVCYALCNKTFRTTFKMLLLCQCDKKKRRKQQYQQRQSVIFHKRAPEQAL
assay.endpoint: inhibition at 10 µM (%)

>  <compound>
O[C@@H]1[C@H](O)[C@@H]2C[C@@H]2[C@H]1n1cnc2c(NCc3cccc(Cl)c3)ncnc21 [Compound 7]

>  <quantity.unit>
%

>  <reported.value>
11

$$$$
>  <compound>
O[C@@H]1[C@H](O)[C@@H]2C[C@@H]2[C@H]1n1cnc2c(NCc3cccc(Cl)c3)nc(C#Cc3ccc(F)c(F)c3)nc21 [Compound 6]

>  <quantity.unit>
%

>  <reported.value>
0

$$$$
>  <compound>
Fc1ccc(C#Cc2nc(NCc3cccc(Cl)c3)c3nc[nH]c3n2)cc1F [Compound 8]

>  <quantity.unit>
%

>  <reported.value>
10

$$$$
>  <compound>
CNC(=O)[C@@]12C[C@@H]1[C@@H](n1cnc3c(NCc4cccc(Cl)c4)nc(C#Cc4ccc(F)cc4)nc31)[C@H](O)[C@@H]2O [Compound 2]

>  <quantity.unit>
%

>  <reported.value>
6

$$$$
>  <compound>
CNC(=O)[C@@]12C[C@@H]1[C@@H](n1cnc3c(NC)nc(C#Cc4ccc(F)c(F)c4)nc31)[C@H](O)[C@@H]2O [Compound 5]

>  <quantity.unit>
%

>  <reported.value>
5

$$$$
>  <compound>
CNC(=O)[C@@]12C[C@@H]1[C@@H](n1cnc3c(NCc4cccc(Cl)c4)nc(C#Cc4ccccc4Cl)nc31)[C@H](O)[C@@H]2O [Compound 3]

>  <quantity.unit>
%

>  <reported.value>
5

$$$$
>  <compound>
CNC(=O)[C@@]12C[C@@H]1[C@@H](n1cnc3c(NCc4cccc(Cl)c4)nc(Cl)nc31)[C@H](O)[C@@H]2O [Compound 4]

>  <quantity.unit>
%

>  <reported.value>
1

$$$$
>  <compound>
O[C@@H]1[C@H](O)[C@@H]2C[C@@H]2[C@H]1n1cnc2c(NC(C3CC3)C3CC3)nc(Cl)nc21 [Compound 10]

>  <quantity.unit>
%

>  <reported.value>
0

$$$$
>  <compound>
Clc1cccc(CNc2nc(Cl)nc3[nH]cnc23)c1 [Compound 9]

>  <quantity.unit>
%

>  <reported.value>
0

$$$$

---

molecular target: peripheral benzodiazepine receptor (PBR) (Rattus norvegicus, UniProt P16257); test: PDSP radioligand binding, PBR; settings: read-out: % inhibition at 10 µM; single concentration 10 µM

>  <structure.notation>
O[C@@H]1[C@H](O)[C@@H]2C[C@@H]2[C@H]1n1cnc2c(NC(C3CC3)C3CC3)nc(Cl)nc21

>  <inhibition at 10 µM (%)>
0

$$$$
>  <structure.notation>
CNC(=O)[C@@]12C[C@@H]1[C@@H](n1cnc3c(NC)nc(C#Cc4ccc(F)c(F)c4)nc31)[C@H](O)[C@@H]2O

>  <inhibition at 10 µM (%)>
25

$$$$
>  <structure.notation>
Fc1ccc(C#Cc2nc(NCc3cccc(Cl)c3)c3nc[nH]c3n2)cc1F

>  <inhibition at 10 µM (%)>
13

$$$$
>  <structure.notation>
O[C@@H]1[C@H](O)[C@@H]2C[C@@H]2[C@H]1n1cnc2c(NCc3cccc(Cl)c3)nc(C#Cc3ccc(F)c(F)c3)nc21

>  <inhibition at 10 µM (%)>
63

$$$$
>  <structure.notation>
O[C@@H]1[C@H](O)[C@@H]2C[C@@H]2[C@H]1n1cnc2c(NCc3cccc(Cl)c3)ncnc21

>  <inhibition at 10 µM (%)>
13

$$$$
>  <structure.notation>
CNC(=O)[C@@]12C[C@@H]1[C@@H](n1cnc3c(NCc4cccc(Cl)c4)nc(Cl)nc31)[C@H](O)[C@@H]2O

>  <inhibition at 10 µM (%)>
32

$$$$
>  <structure.notation>
Clc1cccc(CNc2nc(Cl)nc3[nH]cnc23)c1

>  <inhibition at 10 µM (%)>
8

$$$$
>  <structure.notation>
CNC(=O)[C@@]12C[C@@H]1[C@@H](n1cnc3c(NCc4cccc(Cl)c4)nc(C#Cc4ccc(F)cc4)nc31)[C@H](O)[C@@H]2O

>  <inhibition at 10 µM (%)>
92

$$$$
>  <structure.notation>
CNC(=O)[C@@]12C[C@@H]1[C@@H](n1cnc3c(NCc4cccc(Cl)c4)nc(C#Cc4ccccc4Cl)nc31)[C@H](O)[C@@H]2O

>  <inhibition at 10 µM (%)>
87

$$$$
